- tgt: MK-499 binding (Homo sapiens, UniProt Q12809)
- Sequence (Q12809 whole entry): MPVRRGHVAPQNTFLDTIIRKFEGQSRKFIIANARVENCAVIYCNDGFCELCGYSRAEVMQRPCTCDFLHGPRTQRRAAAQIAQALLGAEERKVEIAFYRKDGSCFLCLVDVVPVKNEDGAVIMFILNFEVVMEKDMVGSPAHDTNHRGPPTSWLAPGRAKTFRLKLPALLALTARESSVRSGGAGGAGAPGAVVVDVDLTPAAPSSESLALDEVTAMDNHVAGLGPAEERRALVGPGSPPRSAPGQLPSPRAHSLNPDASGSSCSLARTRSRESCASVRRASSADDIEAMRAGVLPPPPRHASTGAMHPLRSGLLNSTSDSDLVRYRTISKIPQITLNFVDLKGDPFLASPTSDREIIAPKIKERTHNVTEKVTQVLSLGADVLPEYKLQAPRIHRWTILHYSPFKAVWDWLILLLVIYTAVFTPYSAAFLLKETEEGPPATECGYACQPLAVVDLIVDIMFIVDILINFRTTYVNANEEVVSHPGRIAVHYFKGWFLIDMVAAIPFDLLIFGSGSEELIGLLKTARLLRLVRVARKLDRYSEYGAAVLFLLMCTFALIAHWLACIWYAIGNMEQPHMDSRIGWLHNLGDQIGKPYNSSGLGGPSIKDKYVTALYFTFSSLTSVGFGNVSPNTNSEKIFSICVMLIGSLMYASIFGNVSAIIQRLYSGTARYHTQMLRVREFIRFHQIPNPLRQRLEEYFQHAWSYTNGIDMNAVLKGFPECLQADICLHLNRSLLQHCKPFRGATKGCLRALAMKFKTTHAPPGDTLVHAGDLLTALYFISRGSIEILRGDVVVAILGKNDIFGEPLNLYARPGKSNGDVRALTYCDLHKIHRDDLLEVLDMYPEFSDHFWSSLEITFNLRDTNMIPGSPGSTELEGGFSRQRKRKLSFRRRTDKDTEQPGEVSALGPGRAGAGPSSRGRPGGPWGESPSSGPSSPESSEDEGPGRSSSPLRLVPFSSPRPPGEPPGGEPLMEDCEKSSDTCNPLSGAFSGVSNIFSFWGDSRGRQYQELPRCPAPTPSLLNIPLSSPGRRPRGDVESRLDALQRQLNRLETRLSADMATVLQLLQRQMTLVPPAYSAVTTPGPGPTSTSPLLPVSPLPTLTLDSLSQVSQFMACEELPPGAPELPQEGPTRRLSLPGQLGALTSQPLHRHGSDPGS
measurement_name: IC50 (mM)
Give bare numbers, in mM.

Entry Nc1ccc(-c2ccccc2)nc1NC(=O)c1ccc(CNC(=O)OCc2ccccn2)cc1 : IC50 on MK-499 binding (Homo sapiens, UniProt Q12809) = 2.54

---

I'd appreciate it if you could supply inhibition at 10 µM values for the items below.
- tgt: UniProt:P11712
- Sequence (P11712 whole entry): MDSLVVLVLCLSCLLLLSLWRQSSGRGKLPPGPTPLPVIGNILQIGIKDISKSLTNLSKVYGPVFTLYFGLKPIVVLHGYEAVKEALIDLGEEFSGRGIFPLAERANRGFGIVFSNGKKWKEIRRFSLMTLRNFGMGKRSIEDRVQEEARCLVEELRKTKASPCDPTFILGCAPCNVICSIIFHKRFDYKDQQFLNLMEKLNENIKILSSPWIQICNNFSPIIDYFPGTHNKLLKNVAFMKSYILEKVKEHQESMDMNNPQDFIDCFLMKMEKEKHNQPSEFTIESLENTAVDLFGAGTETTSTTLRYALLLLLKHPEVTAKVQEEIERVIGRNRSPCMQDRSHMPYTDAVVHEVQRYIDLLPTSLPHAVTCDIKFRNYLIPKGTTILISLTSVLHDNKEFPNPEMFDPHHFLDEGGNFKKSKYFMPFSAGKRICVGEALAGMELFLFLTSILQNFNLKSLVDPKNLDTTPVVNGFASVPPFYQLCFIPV
- protocol: Cyp inhibition, Cyp2C9
- Format: in vitro ADME
- particulars: read-out: Percent Cyp inhibition, 2C9
One number for each entry, in %.

Illustrative cases are given below, each with its answer.
INSERT INTO results (given_smiles, tgt, unit_text, value_measured) VALUES
  ('Nc1ccc(-c2ccccc2)nc1NC(=O)c1ccc(CNC(=O)OCc2ccccc2)cc1', 'UniProt:P11712', '%', 25),
  ('Nc1ccc(-c2ccccc2)nc1NC(=O)c1ccc(CNC(=O)OCc2ccccn2)cc1', 'UniProt:P11712', '%', 47),
  ('Nc1ccc(-c2ccccc2)nc1NC(=O)c1ccc(CNC(=O)OCc2cccnc2)cc1', 'UniProt:P11712', '%', 54);

# evaluate next
Notebook: COC(=O)NCc1ccc(C(=O)Nc2nc(-c3ccccc3)ccc2N)cc1 , inhibition at 10 µM read as 49

---

I'd appreciate it if you could supply IC50 values for the items below.
- tgt: human HDAC1 complex (Homo sapiens, UniProt Q13547)
- Construct: Flag; made in house
- Sequence (Q13547 whole entry, one chain of several): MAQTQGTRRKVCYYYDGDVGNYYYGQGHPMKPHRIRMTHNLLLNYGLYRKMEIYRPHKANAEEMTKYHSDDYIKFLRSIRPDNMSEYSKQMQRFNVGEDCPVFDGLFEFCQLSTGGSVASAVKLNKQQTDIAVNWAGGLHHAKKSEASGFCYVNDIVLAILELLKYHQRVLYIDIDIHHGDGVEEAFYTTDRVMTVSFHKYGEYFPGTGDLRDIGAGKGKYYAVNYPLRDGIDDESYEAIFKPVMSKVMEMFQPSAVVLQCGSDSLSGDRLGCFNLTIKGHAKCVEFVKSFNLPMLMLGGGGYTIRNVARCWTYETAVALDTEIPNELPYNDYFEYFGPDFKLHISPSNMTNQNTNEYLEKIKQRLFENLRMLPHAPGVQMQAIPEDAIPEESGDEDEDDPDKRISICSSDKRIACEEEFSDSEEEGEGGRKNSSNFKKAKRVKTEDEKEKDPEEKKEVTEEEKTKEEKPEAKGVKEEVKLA
- protocol: HDAC1-Flag in vitro deacetylation assay
- Format: biochemical
- particulars: Table 2; IP = inflection point; read-out: HDAC1 IP*
- Method: Novel compounds were tested for their ability to inhibit histone deacetylase, subtype 1 (HDAC1) using an in vitro deacetylation assay. The enzyme source for this assay was an epitope-tagged human HDAC1 complex immuno-purified from stably expressing mammalian cells. The substrate consisted of a commercial product containing an acetylated lysine side chain (BIOMOL Research Laboratories, Inc., Plymouth Meeting, Pa.). […]
Give bare numbers, in nM.

INSERT INTO results (given_smiles, tgt, value_measured) VALUES
  ('CC(C)(C)c1ccc(C(=O)Nc2nc(-c3ccccc3)ccc2N)cc1', 'human HDAC1 complex (Homo sapiens, UniProt Q13547)', 235);

Can you give me IC50 for all of these, one by one?
1. COC(=O)c1ccc(C(=O)Nc2nc(-c3ccccc3)ccc2N)cc1
2. Nc1ccc(-c2ccccc2)nc1NC(=O)c1ccccc1

[195, 1160]
